Reported z-score values for the following compounds.
assay: DUSP6 inhibitors restoring Erk phosphorylation by chemical complementation, primary imaging in DUSP6-transfected HeLa (AID 609); settings: HeLa MKP-3 transfected, phospho-Erk imaging KS statistic; measured here: cell density z-score; at 10 µM; cells stimulated with TPA for 15 min
# output: bare number, no unit

[in] Which z-score is reported for this compound? CC(NC(=O)NCc1cccnc1)(C(F)(F)F)C(F)(F)F
[out] -0.926

[in] Which z-score is reported for this compound? CCc1[nH]c(=O)c(C#N)c2c1CCCC2
[out] -0.973

[in] Which z-score is reported for this compound? Cc1nn(CC(N)=O)c(=O)c2ccccc12
[out] 2.22

[in] Which z-score is reported for this compound? N#Cc1nc(COc2ccccc2Cl)oc1NCc1ccc(F)cc1
[out] -1.38

[in] Which z-score is reported for this compound? CCCCN(CCCC)C(=O)CSc1nnc2n(C)c(=O)c3c4c(sc3n12)CCCC4
[out] 2.28

[in] Which z-score is reported for this compound? COc1ccc(CNc2oc(COc3ccc(Cl)cc3)nc2C#N)cc1
[out] 0.0253

---

molecular target: Voltage-gated potassium channel subunit beta-2 (Rattus norvegicus); experiment: KvBeta enzyme negative modulators, primary screen, biochemical, NADPH fluorescence (AID 622); conditions: recombinant KvBeta, 4-cyanobenzaldehyde reduction, at 10 µM, stronger effect = higher value;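 also: slope of raw intensity against log time taken from 70 to 1610 s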
Please use met whenever fluorescence slope is not below -0.5, and not met whenever it is.

The examples below pair each entry with its known result.
CCCCSc1nnc(-c2ccc(NC(C)=O)cc2)n1C :: met
Cc1ccc(-c2noc(CN3C(C)CCCC3C)n2)cc1 (stereo unspecified) :: not met
CC1CN=C(N(C(=O)Nc2ccccc2)c2ccc(S(=O)(=O)N3CCOCC3)cc2)S1 (stereo unspecified) :: met
CCOC(=O)c1cc2c(=O)n3ccccc3nc2n(CC2CCCO2)c1=NC(C)=O (stereo unspecified) :: met

[in] Please indicate if the recorded fluorescence slope for CCOC(=O)c1c(N)sc(=S)c2c1CCC2 meets or exceeds -0.5.
[out] met

---

molecular target: Dual specificity protein phosphatase 6 (Homo sapiens) (UniProt Q16828); experiment: DUSP6 inhibitors restoring Erk phosphorylation by chemical complementation, primary imaging in DUSP6-transfected HeLa (AID 609); conditions: HeLa MKP-3 transfected, phospho-Erk imaging KS statistic; at 10 µM; stronger effect = higher value; cells stimulated with TPA for 15 min;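 as to inhibition: phospho-Erk level distribution per well compared with pooled transfected vehicle control wells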
Sequence (Q16828 whole entry, looked up): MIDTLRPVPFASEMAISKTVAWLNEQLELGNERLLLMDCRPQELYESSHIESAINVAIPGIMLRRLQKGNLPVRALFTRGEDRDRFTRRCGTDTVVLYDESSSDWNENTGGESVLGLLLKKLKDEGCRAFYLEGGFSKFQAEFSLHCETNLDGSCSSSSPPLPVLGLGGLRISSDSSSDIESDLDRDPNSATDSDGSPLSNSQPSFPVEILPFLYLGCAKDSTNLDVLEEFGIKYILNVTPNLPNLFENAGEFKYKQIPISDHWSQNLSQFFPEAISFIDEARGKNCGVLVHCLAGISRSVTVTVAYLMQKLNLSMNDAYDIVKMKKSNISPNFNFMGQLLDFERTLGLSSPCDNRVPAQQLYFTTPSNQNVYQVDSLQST
measuredAttribute: inhibition (%)
// note: answer is a bare numeric in %

Worked cases, inhibition given:
CCOC(=O)C(O)(C1C(=O)CC(C)(C)CC1=O)C(F)(F)F (stereo not given) :: -9.53
COC(=O)c1c(-n2cnnn2)sc(C)c1C :: -2.29
CCCc1cc(=O)oc2c(CN3CCCC3)c(O)ccc12 :: 0.671
Cc1c(C)[n+](=O)c2c(n1[O-])CCC2 :: 13.9

Let's switch to this compound now.
[in] Which inhibition is reported for this compound? Cc1ccc(-n2ncc3c(N4CCCC4)ncnc32)c(C)c1
[out] -2.59

---

assay: inhibitors of mutant huntingtin aggregation, primary screen, imaging, exon1htt(103Q)mCFP cells, high-content imaging (AID 483); details: exon1htt(103Q)mCFP cell line, aggregate imaging, at 2 µM; measured here: cell count, toxicity;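 also: compound exposure lasted 3 days before fixation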;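 as to nuclei count: percent of the per-plate median nuclei count of sample wells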
measuredAttribute: nuclei count (%)
// note: answer is a bare numeric in %

Worked cases, nuclei count given:
COc1cccc(-c2cc(C(=O)N3CCc4ccccc4C3)no2)c1 :: 111
O=C(NCCN1CCOCC1)NC1(C(F)(F)F)Oc2ccc(Cl)cc2O1 (stereo not given) :: 96.4
CNC(=O)c1ccc(N(Cc2ccccc2C)S(C)(=O)=O)cc1 :: 117
CCc1ccc(CN(C)CCc2ccccn2)cc1 :: 108

[in] Which nuclei count is reported for this compound? COCc1nnc(NC(=O)c2ccc(S(=O)(=O)N(C)c3ccccc3)cc2)o1
[out] 116

[in] Which nuclei count is reported for this compound? COc1ccccc1Oc1ccc(S(=O)(=O)N2CCOCC2)cc1S(=O)(=O)N1CCOCC1
[out] 106

[in] Which nuclei count is reported for this compound? COc1ccc(C(=O)N(CCCO)Cc2cc3c(C)ccc(C)c3[nH]c2=O)cc1OC
[out] 91.4

[in] Which nuclei count is reported for this compound? CC(C)(C)OC(=O)NCCc1nnc(SCC(=O)c2ccc(Cl)cc2)o1
[out] 77.1

[in] Which nuclei count is reported for this compound? CC(C)C(NC(=O)c1ccc(S(=O)(=O)N2CCOCC2)cc1)c1nc2ccccc2[nH]1 (stereo not given)
[out] 114

[in] Which nuclei count is reported for this compound? CCOc1ccc(N(C(C)=O)C2C=CS(=O)(=O)C2)cc1 (stereo not given)
[out] 104

[in] Which nuclei count is reported for this compound? O=C(C1CCN(c2nnc(-n3cccc3)s2)CC1)N1CCOCC1
[out] 123

[in] Which nuclei count is reported for this compound? Cc1cc(C)c(NC(=O)CSc2nnc(-c3ccncc3)n2Cc2ccco2)c(C)c1
[out] 111

[in] Which nuclei count is reported for this compound? CC(=O)Nc1ccc(S(=O)(=O)NCc2cn3c(C)csc3n2)cc1
[out] 104

[in] Which nuclei count is reported for this compound? CCCNS(=O)(=O)c1ccc(OCC(=O)NCc2ccco2)cc1
[out] 110

[in] Which nuclei count is reported for this compound? CS(=O)(=O)N1CCCC(C(=O)NCc2ccccc2Cl)C1 (stereo not given)
[out] 77.4

[in] Which nuclei count is reported for this compound? CCSc1nc2c(c(=O)[nH]1)C(c1cccnc1)C(C(=O)OC(C)C)=C(C)N2 (stereo not given)
[out] 93.1

[in] Which nuclei count is reported for this compound? Cc1cc(C(=O)NCc2ccc(S(N)(=O)=O)cc2)cs1
[out] 108

[in] Which nuclei count is reported for this compound? COCCCN(Cc1ccccn1)S(=O)(=O)Cc1ccccc1
[out] 97.4

[in] Which nuclei count is reported for this compound? CCC(C)NC(=O)C1(C)CCC(=O)N1CCc1ccc(OC)c(OC)c1 (stereo not given)
[out] 105

[in] Which nuclei count is reported for this compound? O=C(O)c1ccccc1S(=O)(=O)NCC(O)COc1ccc(Br)cc1 (stereo not given)
[out] 106

[in] Which nuclei count is reported for this compound? CCn1c(SCC(=O)Nc2cc(C)ccc2C)nc2c(c1=O)SC(C)C2 (stereo not given)
[out] 98

[in] Which nuclei count is reported for this compound? O=C(Cn1cnc2c(nnn2-c2ccc(F)cc2)c1=O)N1CCCc2ccccc21
[out] 130

[in] Which nuclei count is reported for this compound? COc1ccc(OC)c(Nc2ncnc3c2cnn3-c2ccccc2)c1
[out] 111

[in] Which nuclei count is reported for this compound? COc1ccc(C)cc1NC(=O)COCC(=O)O
[out] 100

[in] Which nuclei count is reported for this compound? CN(C(=O)COc1cc(=O)n(C)c2ccccc12)c1ccc(Br)cc1
[out] 104

[in] Which nuclei count is reported for this compound? O=C1OCc2cc(NC(=O)C3CCCO3)ccc21 (stereo not given)
[out] 111

---

test: inhibitors of TNFa-induced NFkB p65 translocation, primary screen, imaging, HUVEC, MLSMR starter and 10KST1 sets (AID 438); settings: HUVEC TNFa-induced p65 nuclear translocation; at 2 µM, stronger effect = higher value, 0% TNFa-plus-vehicle, 100% no-TNFa wells;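 also: compound added about 3h40 before a 20 min TNFalpha stimulation; signal is the nuclear over cytoplasmic p65 intensity ratio per well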
Reported inhibition values for the following molecules.
// note: answer is a bare numeric in %

Cc1ccc(S(=O)(=O)NC(C)C(=O)Nc2ccc(C(N)=O)cc2)cc1 (configuration not stated) :: 1.6
Cc1cc(NC(CC(C)C)C(=O)O)nc(Cc2ccccc2)n1 (configuration not stated) :: -2.8
Cc1c(C2CC(=O)N(c3ccccc3)C2=O)[nH]n(-c2ccccc2)c1=O (configuration not stated) :: 4.4
CC(=O)O[C@H]1CSC[C@H]1NC(=O)c1ccccc1 :: 10.9
CCOc1ccc(NC(=O)Cn2nnc(-c3ccccc3F)n2)cc1 :: -2.7
CN(CCCCCNC(=O)/C=N/O)Cc1ccccc1 :: -11.4

Let's switch to this molecule now.
[in] Which inhibition is reported for this molecule? CN(C(=O)COc1cc(=O)n(C)c2ccccc12)c1ccc(Br)cc1
[out] 71.5

---

test: inhibitors of mutant huntingtin aggregation, primary screen, imaging, exon1htt(103Q)mCFP cells, high-content imaging (AID 483); settings: exon1htt(103Q)mCFP cell line, aggregate imaging, at 2 µM; stronger effect = higher value;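 also: compound exposure lasted 3 days before fixation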
measuredAttribute: inhibition of aggregation (%)
// note: answer is a bare numeric in %

Worked cases, inhibition of aggregation given:
O=C(O)c1ccc2c(c1)N(Cc1ccccc1F)C(=O)c1ccccc1S2=O (stereo unspecified) :: 17.9
CCN(CC)c1ccc(NC(=O)CN2CCN(CC(=O)Nc3ccccc3F)CC2)cc1 :: 5.8
O=C(NC1CCCCC1)N(Cc1ccccc1)Cc1ccco1 :: 0.2
Cc1cc(C(=O)COC(=O)C2COc3ccccc3O2)c(C)n1CC1CCCO1 (stereo unspecified) :: 19.3
CCOC(=O)C(C)Sc1nnc(Cc2cc(=O)[nH]c(=O)[nH]2)n1-c1ccc(Cl)cc1 (stereo unspecified) :: 4.6
COc1ccc2nc3oc(C(=O)NC4CCN(Cc5ccccc5)CC4)cc3cc2c1 :: -19
COc1cc(NC(=O)C2CCCN2S(=O)(=O)c2cccc3cccnc23)cc(OC)c1OC (stereo unspecified) :: 15.1
COc1ccc(Cl)cc1NC(=O)CCN1CCN(c2ccccc2C)CC1 :: -3.9

[in] Which inhibition of aggregation is reported for this compound? O=C(CN(C1CCCCC1)S(=O)(=O)c1ccccc1)NCc1cccnc1
[out] -28.8

[in] Which inhibition of aggregation is reported for this compound? CCc1ccccc1NC(=O)c1ccoc1C
[out] 0.7

[in] Which inhibition of aggregation is reported for this compound? O=c1oc2c3c4c(cc2s1)CCCN4CCC3
[out] -6.4
